# Tested on: RAW-Dual (murine macrophage reporter line)
# Procedure Text: IRF reporter (Lucia luciferase) activity fold change vs agonist alone; higher = enhanced IRF activity
# Run Parameters: modulator concentration 10 µM; agonist: LPS 0.1 ug/mL
Quantity Measured: IRF reporter
Lab note: jot the number down without any unit.

QUERY: Please list IRF reporter recorded for the molecule O=S(=O)(c1ccccc1)N1CCOCC1
RESULT: 1.33

QUERY: Please list IRF reporter recorded for the molecule O=C(Oc1ccc(C=Nc2ccc([N+](=O)[O-])cc2)cc1)c1ccccc1
RESULT: 0.985

QUERY: Please list IRF reporter recorded for the molecule COc1cccc(CC(=O)N2CCC(Oc3ccc4ccccc4n3)C2)c1 (centres undefined)
RESULT: 1.18

QUERY: Please list IRF reporter recorded for the molecule O=[N+]([O-])c1cc2c(cc1C=Nc1ccc(O)cc1)OCO2
RESULT: 1.19

QUERY: Please list IRF reporter recorded for the molecule C[C@H](Oc1cc(-c2cnn(C3CCNCC3)c2)cnc1N)c1c(Cl)ccc(F)c1Cl
RESULT: 1.1

QUERY: Please list IRF reporter recorded for the molecule COc1cc(C=C(C#N)c2nc3ccccc3[nH]2)cc(Cl)c1O
RESULT: 1.06

QUERY: Please list IRF reporter recorded for the molecule N#Cc1c(NC(=O)c2cccc3ccccc23)sc2c1CCCC2
RESULT: 1.35

QUERY: Please list IRF reporter recorded for the molecule COc1cc(Br)c(C=C(C#N)c2nn(-c3ccccc3)c(N)c2C#N)cc1OC
RESULT: 1.25

QUERY: Please list IRF reporter recorded for the molecule N#Cc1ccnc(N2C(=O)CC[C@H]2C(=O)N(c2cncc(F)c2)[C@H](C(=O)NC2CC(F)(F)C2)c2ccccc2Cl)c1
RESULT: 1.28

QUERY: Please list IRF reporter recorded for the molecule Nc1ncnc2c1ncn2C1CC(O)C(CO)O1 (centres undefined)
RESULT: 1.29

QUERY: Please list IRF reporter recorded for the molecule O=C(CCC1CCCC1)Nc1cccc(Cl)c1
RESULT: 1.63

QUERY: Please list IRF reporter recorded for the molecule O=C(Oc1ccc2oc(=O)sc2c1)c1ccccc1
RESULT: 1.26

QUERY: Please list IRF reporter recorded for the molecule CN(C(=O)c1cncc(F)c1)C1CN(c2ccc3nnc(C4CC4)n3n2)C1
RESULT: 0.991

QUERY: Please list IRF reporter recorded for the molecule Nc1nccs1
RESULT: 1.32

QUERY: Please list IRF reporter recorded for the molecule CCOc1ccc(C=Nc2cccc3ncccc23)cc1
RESULT: 1.15

QUERY: Please list IRF reporter recorded for the molecule CCOC(=O)c1ccccc1NC(=O)CN(c1cc(C)ccc1OC)S(C)(=O)=O
RESULT: 1.05

QUERY: Please list IRF reporter recorded for the molecule CCN1CC(CCN2CCOCC2)C(c2ccccc2)(c2ccccc2)C1=O.Cl.O (centres undefined)
RESULT: 1.37

QUERY: Please list IRF reporter recorded for the molecule Cc1cc(OCCCOc2cccc3cccnc23)ccc1Cl
RESULT: 1.14

QUERY: Please list IRF reporter recorded for the molecule O=c1ccc2cc(O)c(O)cc2o1
RESULT: 1.34

QUERY: Please list IRF reporter recorded for the molecule CNCCc1ccccn1.Cl.Cl
RESULT: 1.01

QUERY: Please list IRF reporter recorded for the molecule Cc1ccc(Nc2cc(N3CCCCC3)c(N)c3c2C(=O)c2ccccc2C3=O)cc1
RESULT: 1.56

QUERY: Please list IRF reporter recorded for the molecule O=C(NCCC(CCO)c1ccccc1)c1cccc(Br)c1 (centres undefined)
RESULT: 0.927

QUERY: Please list IRF reporter recorded for the molecule COc1ccc(C2CNC(=O)C2)cc1OC1CCCC1 (centres undefined)
RESULT: 0.963

QUERY: Please list IRF reporter recorded for the molecule CC(C)(C)c1ccc(C2=NC(=Cc3cccc4ccccc34)C(=O)O2)cc1
RESULT: 1.1
